The measured values listed here are drawn from patent US20040266623A1.

- Tested on: crabgrass
- assay.protocol: Greenhouse pot test, postemergent spray, visual control rating converted to percent control
- Format: in vivo
- condition.notes: Test 3, 14 DAT; scale 1=no control, 9=death of plant
Could you please report measured Control (1-9) Crabgrass for the items listed next?
Reply with just the number.

Task: Which measured Control (1-9) Crabgrass value corresponds to Cc1nn(-c2cc(NS(C)(=O)=O)c(Cl)cc2Cl)c(=O)n1C(F)F [Sulfentrazone @ 0.03 lbs/A] ?
Output: 5

Task: Next entry: "Cc1cc(Cl)ccc1OCC(=O)OCCCCCC(C)C"
Output: 2

Task: How about this compound: O=C(O)c1c(Cl)ccc2cc(Cl)cnc12 [Quinclorac @ 0.375 lbs/A]
Output: 4

Task: O=C(O)c1c(Cl)ccc2cc(Cl)cnc12 [Quinclorac @ 0.75 lbs/A] , same question.
Output: 6

Task: For Cc1nn(-c2cc(NS(C)(=O)=O)c(Cl)cc2Cl)c(=O)n1C(F)F [Sulfentrazone @ 0.02 lbs/A] then?
Output: 4

Task: Also O=C(O)c1c(Cl)ccc2cc(Cl)cnc12 [Quinclorac @ 0.18 lbs/A] ?
Output: 3

---

- Tested on: crabgrass
- assay.protocol: Greenhouse pot test, postemergent spray, visual control rating converted to percent control
- Assay type: in vivo
- condition.notes: Test 3, 14 DAT
measured.parameter: % Control Crabgrass (%)
Only the number, expressed in %, is required.

Task: Any idea what its % Control Crabgrass is? The compound is Cc1nn(-c2cc(NS(C)(=O)=O)c(Cl)cc2Cl)c(=O)n1C(F)F [Sulfentrazone @ 0.03 lbs/A]
Output: 55.6

Task: // repeat for O=C(O)c1c(Cl)ccc2cc(Cl)cnc12 [Quinclorac @ 0.375 lbs/A] and report
Output: 44.4

Task: Same for Cc1nn(-c2cc(NS(C)(=O)=O)c(Cl)cc2Cl)c(=O)n1C(F)F [Sulfentrazone @ 0.02 lbs/A]
Output: 44.4

Task: Likewise for "Cc1cc(Cl)ccc1OCC(=O)OCCCCCC(C)C" ?
Output: 22.2

Task: Now consider O=C(O)c1c(Cl)ccc2cc(Cl)cnc12 [Quinclorac @ 0.18 lbs/A] .
Output: 33.3

Task: # iterate: O=C(O)c1c(Cl)ccc2cc(Cl)cnc12 [Quinclorac @ 0.75 lbs/A]
Output: 66.7

---

- System: white clover
- assay.protocol: Greenhouse pot test, postemergent spray, visual control rating converted to percent control
- Format: in vivo
- condition.notes: Test 3, 7 DAT
Please provide measured % Control Clover for the entries that follow.
Please reply with the bare figure in % and do not write the unit itself.

Task: Report % Control Clover for O=C(O)c1c(Cl)ccc2cc(Cl)cnc12 [Quinclorac @ 0.75 lbs/A] please.
Output: 44.4

Task: Now this one: Cc1nn(-c2cc(NS(C)(=O)=O)c(Cl)cc2Cl)c(=O)n1C(F)F [Sulfentrazone @ 0.03 lbs/A]
Output: 44.4

Task: // repeat for O=C(O)c1c(Cl)ccc2cc(Cl)cnc12 [Quinclorac @ 0.375 lbs/A] and report
Output: 44.4

Task: Queued: O=C(O)c1c(Cl)ccc2cc(Cl)cnc12 [Quinclorac @ 0.18 lbs/A]
Output: 44.4

Task: "Cc1cc(Cl)ccc1OCC(=O)OCCCCCC(C)C" ?
Output: 66.7

Task: What do you have for Cc1nn(-c2cc(NS(C)(=O)=O)c(Cl)cc2Cl)c(=O)n1C(F)F [Sulfentrazone @ 0.02 lbs/A] ?
Output: 33.3
